Assign pEC50 to each entry below.
# System: telomerase (extracts from A2780 human ovarian carcinoma cells)
# experimental-details: Modified telomeric repeat amplification protocol (TRAP) assay, cell-free
# Format: biochemical
# measurement-setup: Table 4; read-out: Telomerase EC50
Answers are plain numbers, as −log10 of the molar value.

chemical-string	pEC50
O=C(CCN1CCCC1)Nc1ccc2c(NCc3ccc(F)c(F)c3)c3ccc(NC(=O)CCN4CCCC4)cc3nc2c1	6.79

Task item: Which pEC50 value belongs to CN(C)c1ccc(Nc2c3ccc(NC(=O)CCN4CCCC4)cc3nc3cc(NC(=O)CCN4CCCC4)ccc23)cc1 ?
Reply: 6.94

* * *

For each of the compounds below, state its solubility at 24 h.
# experimental-details: Thermodynamic solubility
# Assay type: physicochemical
# measurement-setup: simulated gastric fluid, thermodynamic from solid; 0.1M HCl, 24 hours; read-out: Solubility Free Base equivalent

chemical-string	solubility at 24 h
O=C(CCN1CCCC1)Nc1ccc2c(NCc3ccc(F)c(F)c3)c3ccc(NC(=O)CCN4CCCC4)cc3nc2c1	> 5000 µg/mL

Now for another entry.
Task item: I'd like to know its solubility at 24 h. The compound in question is CN(C)c1ccc(Nc2c3ccc(NC(=O)CCN4CCCC4)cc3nc3cc(NC(=O)CCN4CCCC4)ccc23)cc1
Reply: > 5000 µg/mL
